Please provide measured EC50 for the entries that follow.
Assayed Target: T1, Full-length human TIGIT on CHO-K1 cells (CHO-K1 human TIGIT) (human, UniProt Q495A1 22-244)
T1 construct: NCBI XP_024309156.1; the entry includes the signal peptide (limits not recoverable); The strain (high, medium, low) is named under assay; also called high expression strain 1D2; medium expression strain 2D10
T1 sequence: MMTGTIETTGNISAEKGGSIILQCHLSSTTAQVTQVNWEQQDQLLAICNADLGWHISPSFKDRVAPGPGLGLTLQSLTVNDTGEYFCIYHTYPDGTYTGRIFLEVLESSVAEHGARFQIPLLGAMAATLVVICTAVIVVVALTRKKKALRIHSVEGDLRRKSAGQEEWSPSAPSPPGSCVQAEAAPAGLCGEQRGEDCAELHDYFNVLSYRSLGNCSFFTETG
Test Method Notes: cell binding, CHO-K1 human TIGIT high expression strain
Quick reminder: number only, in nM, skip the unit.

[Q] Determine its reported EC50: TIGIT-006-H1L2 (antibody, V domains shown, Humanized anti-TIGIT antibody) VH: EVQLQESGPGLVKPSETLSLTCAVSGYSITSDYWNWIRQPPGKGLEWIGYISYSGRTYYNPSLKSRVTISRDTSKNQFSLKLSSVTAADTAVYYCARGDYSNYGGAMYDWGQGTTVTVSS VL: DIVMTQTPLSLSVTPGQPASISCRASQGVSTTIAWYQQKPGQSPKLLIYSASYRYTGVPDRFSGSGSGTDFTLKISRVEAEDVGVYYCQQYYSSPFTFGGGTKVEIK
[A] 0.105

[Q] Find the measured EC50 of TIGIT-002-H3L2 (antibody, V domains shown, Humanized anti-TIGIT antibody) VH: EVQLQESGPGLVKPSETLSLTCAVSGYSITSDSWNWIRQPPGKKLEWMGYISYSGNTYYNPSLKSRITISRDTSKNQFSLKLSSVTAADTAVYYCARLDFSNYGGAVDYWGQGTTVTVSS VL: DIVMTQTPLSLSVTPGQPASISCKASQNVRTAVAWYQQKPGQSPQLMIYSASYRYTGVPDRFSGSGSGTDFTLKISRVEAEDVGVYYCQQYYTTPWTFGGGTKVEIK and report it.
[A] 0.0329
